# Test system: T. vaginalis
# Assay method text: Trichomonas resorufin assay
# Assay type: cell-based
# Details: Trichomonas vaginalis, read-out: IC50 T. vaginalis
Quantity: IC50

Input "CC(C)/N=C(\N)CCNC(=O)c1cc(NC(=O)c2cc(NC(=O)c3ccc(/C=C/c4ccc5nonc5c4)cc3)cn2C)cn1C" , output reported IC50. 1 to 5 µM

Input "COCCOCC[N+](C)(C)CCNC(=O)c1cc(NC(=O)c2cc(NC(=O)c3ccc(/C=C/c4cnc5ccccc5c4)cc3)cn2C)cn1C" , output reported IC50. 1 to 5 µM

Input "CCCCCCCCCCC[N+](C)(C)CCNC(=O)c1cc(NC(=O)c2cc(NC(=O)c3ccc(/C=C/c4cnc5ccccc5c4)cc3)cn2C)cn1C" , output reported IC50. 5 to 50 µM

Input "CCCCCCCCCNC(=N)CCNC(=O)c1cc(NC(=O)c2cc(NC(=O)c3ccc(/C=C/c4cnc5ccccc5c4)cc3)cn2C)cn1C" , output reported IC50. 5 to 50 µM

Input "CCCCCCCCCCCCCCC[N+](C)(C)CCNC(=O)c1cc(NC(=O)c2cc(NC(=O)c3ccc(/C=C/c4cnc5ccccc5c4)cc3)cn2C)cn1C" , output reported IC50. 5 to 50 µM

Input "CCCCCCC/N=C(/CCNC(=O)c1cc(NC(=O)c2cc(NC(=O)c3ccc(/C=C/c4cnc5ccccc5c4)cc3)cn2C)cn1C)NCCCCCCC" , output reported IC50. 5 to 50 µM
